Molecular target: UniProtKB P46095
Sequence (P46095 whole entry): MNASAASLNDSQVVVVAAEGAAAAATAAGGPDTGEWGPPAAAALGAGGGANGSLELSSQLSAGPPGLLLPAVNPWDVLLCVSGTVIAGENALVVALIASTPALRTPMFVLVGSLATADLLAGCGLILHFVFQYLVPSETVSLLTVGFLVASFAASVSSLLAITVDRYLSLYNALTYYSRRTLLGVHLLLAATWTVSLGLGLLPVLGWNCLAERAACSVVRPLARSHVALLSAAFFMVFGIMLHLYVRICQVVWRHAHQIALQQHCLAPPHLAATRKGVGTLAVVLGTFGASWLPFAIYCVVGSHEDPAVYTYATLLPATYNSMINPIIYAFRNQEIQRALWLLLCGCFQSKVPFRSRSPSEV
Assay: Modulation activity at GPR6 receptor (unknown origin) expressed in CHO-K1 cells assessed as inhibition of constitutive cAMP activity incubated for 45 mins in presence of 300 uM IBMX by Perkin Elmer Lance HTRF Ultrac-AMP assay
Assay type: functional, cell-based
Conditions: cho-k1
assay-readout: IC50 (nM)

Example compounds with recorded IC50:
>>> df
                                   compound  recorded_result
0  CC(=O)O[C@H]1C[C@H](Nc2nc3c(nc2N2CCC(Oc4ccc(F)cc4F)CC2)CCN(C(C)=O)C3)C1              604
1  COC(=O)N1CCc2nc(NC(C)C)c(N3CCC(Oc4ccc(F)cc4F)CC3)nc2C1              132
2  CC(C)Nc1nc2c(nc1N1CCC(Oc3ccc(F)cc3F)CC1)CN(CCF)CC2             69.2

[1] CC(=O)N1CCc2nc(N3CCN(Cc4ccc(F)cc4F)CC3)c(N[C@@H]3CCOC3)nc2C1
[2] CC(C)Nc1nc2c(nc1N1CCC(Oc3ccc(F)cc3F)CC1)C(C)N(C(=O)N(C)C)CC2 (stereo not given)
Prompt: Which numeric IC50 is bigger, that of 1 or that of 2 ? Reply with the label of the item you choose.
Completion: 2
(2: 179 nM, 1: 63.2 nM)

Reference source for all entries: ChEMBL document CHEMBL4419121
